- Test system: Xanthium strumarium
- protocol: Herbicidal activity against Xanthium strumarium (cocklebur) 500 g/ha after 2 weeks
- Type: functional
Activity listing for selected compounds.
Dear colleague, please return just the value in %, with no unit written.

// known answers, use as guide
CCCNC(=O)c1nc(C)c(C)nc1C(=O)Nc1cc(Cl)ccc1C ... 50
Cc1ccc(Cl)cc1NC(=O)c1nc(C)c(C)nc1C(=O)NC(C)C ... 50
CCCNC(=O)c1nc(C)c(C)nc1C(=O)Nc1cc(F)ccc1C ... 95

Okay, now this compound:
I would be grateful if you could share the reported Activity for Cc1ccc(F)cc1NC(=O)c1nc(C)c(C)nc1C(=O)NC(C)C .
70

* * *

Activity listing for selected molecules.
- System: Echinochloa crus-galli
- protocol: Herbicidal activity against Echinochloa crus-galli (barnyard grass) at 250 g/ha after 2 weeks
- Format: functional

// known answers, use as guide
Cc1ccc(F)cc1NC(=O)c1nc(C)c(C)nc1C(=O)NC(C)(C)C ... <10%
CCC(C)NC(=O)c1nc(C)c(C)nc1C(=O)Nc1cc(F)ccc1C (racemic) ... <10%
CCCCNC(=O)c1nc(C)c(C)nc1C(=O)Nc1cc(F)ccc1C ... <10%
CC[C@H](C)NC(=O)c1nc(C)c(C)nc1C(=O)Nc1cc(Cl)ccc1C ... <10%
Cc1ccc(Cl)cc1NC(=O)c1nc(C)c(C)nc1C(=O)NC(C)(C)C ... <10%

I would be grateful if you could share the reported Activity for CCC(C)NC(=O)c1nc(C)c(C)nc1C(=O)Nc1cc(Cl)ccc1C (racemic) .
<10%

I would be grateful if you could share the reported Activity for CC[C@@H](C)NC(=O)c1nc(C)c(C)nc1C(=O)Nc1cc(Cl)ccc1C .
<10%

I would be grateful if you could share the reported Activity for Cc1ccc(F)cc1NC(=O)c1nc(C)c(C)nc1C(=O)NCC(C)C .
<10%

I would be grateful if you could share the reported Activity for CC[C@@H](C)NC(=O)c1nc(C)c(C)nc1C(=O)Nc1cc(F)ccc1C .
<10%

I would be grateful if you could share the reported Activity for Cc1ccc(F)cc1NC(=O)c1nc(C)c(C)nc1C(=O)NC(C)C .
<10%

* * *

- System: Glycine max
- protocol: Herbicidal activity against Glycine max (soybean) at 500 g/ha after 2 weeks
- Assay type: organism-based
- setup-conditions: in vivo, 336 h
Activity listing for selected molecules.

CCNC(=O)c1nc(C)c(C)nc1C(=O)Nc1cc(Cl)ccc1C ... < 10%
Cc1ccc(Cl)cc1NC(=O)c1nc(C)c(C)nc1C(=O)NCC(C)C ... < 10%
Cc1ccc(F)cc1NC(=O)c1nc(C)c(C)nc1C(=O)NCC(C)C ... < 10%
Cc1ccc(F)cc1NC(=O)c1nc(C)c(C)nc1C(=O)NC(C)C ... < 10%
CCC(C)NC(=O)c1nc(C)c(C)nc1C(=O)Nc1cc(Cl)ccc1C (racemic) ... < 10%
CC[C@@H](C)NC(=O)c1nc(C)c(C)nc1C(=O)Nc1cc(F)ccc1C ... < 10%
CC[C@H](C)NC(=O)c1nc(C)c(C)nc1C(=O)Nc1cc(Cl)ccc1C ... < 10%
CCCNC(=O)c1nc(C)c(C)nc1C(=O)Nc1cc(Cl)ccc1C ... < 10%

I would be grateful if you could share the reported Activity for CCCCNC(=O)c1nc(C)c(C)nc1C(=O)Nc1cc(Cl)ccc1C .
< 10%

I would be grateful if you could share the reported Activity for Cc1ccc(Cl)cc1NC(=O)c1nc(C)c(C)nc1C(=O)NC(C)C .
< 10%

I would be grateful if you could share the reported Activity for CCCCNC(=O)c1nc(C)c(C)nc1C(=O)Nc1cc(F)ccc1C .
< 10%

I would be grateful if you could share the reported Activity for CC[C@@H](C)NC(=O)c1nc(C)c(C)nc1C(=O)Nc1cc(Cl)ccc1C .
< 10%

I would be grateful if you could share the reported Activity for Cc1ccc(F)cc1NC(=O)c1nc(C)c(C)nc1C(=O)NC(C)(C)C .
< 10%

I would be grateful if you could share the reported Activity for Cc1ccc(Cl)cc1NC(=O)c1nc(C)c(C)nc1C(=O)NC(C)(C)C .
< 10%

I would be grateful if you could share the reported Activity for CCC(C)NC(=O)c1nc(C)c(C)nc1C(=O)Nc1cc(F)ccc1C (racemic) .
< 10%

I would be grateful if you could share the reported Activity for CC[C@H](C)NC(=O)c1nc(C)c(C)nc1C(=O)Nc1cc(F)ccc1C .
< 10%

I would be grateful if you could share the reported Activity for CCCNC(=O)c1nc(C)c(C)nc1C(=O)Nc1cc(F)ccc1C .
< 10%
